Each recorded value in this set is attributed to patent US10196363B2.

Below is a list of entries, each paired with its recorded pEC50 value.
- target under test: mouse RORγ (Mus musculus)
- Construct: mouse RORγ, from Ile251 to Lys516; expressed in transfected cells; host or cells: CHO cells (Chinese hamster ovary), transient co-transfection with pG5-Luc
- assay remarks: In vitro assay of inhibitory effect against RORγ transcriptional activity (GAL4-mRORγ LBD luciferase reporter gene assay in CHO cells)
- Type: cell-based
- particulars: GAL4-mRORγ LBD luciferase reporter, CHO cells; read-out: LUC EC50 mRORγ
pEC50: −log10 of the molar value.
reported property: pEC50

INSERT INTO measurements (compound, reported_property, reported_relation, value) VALUES
  ('CC(C)(C)CCc1ccc([C@]2(C)NC(=O)N(C3CCOCC3)C=C2[C@H]2C[C@@H](C(=O)O)C2)cc1Cl [Example 199]', 'pEC50', '=', 6.87),
  ('CC(C)C1=CN(CCC(=O)O)C(=O)N[C@@]1(C)c1ccc(S(=O)(=O)C2CCCC2)c(Cl)c1 [Example 227]', 'pEC50', '<', 4.70),
  ('COCC1(N2C=C([C@H]3C[C@@H](C(=O)O)C3)[C@](C)(c3ccc(CCC(C)(C)C)c(Cl)c3)NC2=O)CC1 [Example 250]', 'pEC50', '=', 6.94),
  ('CCOC(=O)C1CNCC1N1C=C(C(C)C)[C@](C)(c2ccc(CCC(C)(C)C)c(Cl)c2)NC1=O (single isomer, unassigned) [Example 244]', 'pEC50', '=', 6.57);

* * *

- target under test: mouse RORγ (Mus musculus, UniProt P51450)
- Construct: mouse RORγ, from Ile251 to Lys516; expressed in transfected cells; host or cells: CHO cells (Chinese hamster ovary), transient co-transfection with pG5-Luc
- Sequence (P51450 251-516): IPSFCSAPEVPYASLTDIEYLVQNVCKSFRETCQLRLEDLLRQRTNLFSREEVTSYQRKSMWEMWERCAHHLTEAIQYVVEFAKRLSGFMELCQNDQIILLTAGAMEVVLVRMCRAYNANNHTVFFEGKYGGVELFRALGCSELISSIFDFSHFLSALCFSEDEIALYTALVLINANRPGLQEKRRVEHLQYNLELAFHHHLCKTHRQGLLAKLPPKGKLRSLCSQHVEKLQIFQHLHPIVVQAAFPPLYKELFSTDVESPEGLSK
- assay remarks: In vitro assay of inhibitory effect against RORγ transcriptional activity (GAL4-mRORγ LBD luciferase reporter gene assay in CHO cells)
- Format: cell-based
- particulars: GAL4-mRORγ LBD / pG5-Luc in CHO cells, 2 days incubation
pEC50: −log10 of the molar value.
reported property: pEC50

INSERT INTO assay_data (compound, reported_property, reported_relation, value) VALUES
  ('CC(C)C1=CN(CCC(=O)O)C(=O)N[C@@]1(C)c1cc(F)c(OCC(C)(C)C)c(Cl)c1', 'pEC50', '=', 7.96),
  ('CC(C)(C)COc1ccc(C2NC(=O)NC=C2C2CC(C(=O)O)C2)cc1Cl (racemic)', 'pEC50', '=', 6.28),
  ('CC(C)C1=CN(CCC(=O)O)C(=O)N[C@@]1(C)c1ccc(CCc2ccccc2)c(Cl)c1', 'pEC50', '=', 7.43),
  ('CC(C)C1=CN(CCC(=O)O)C(=O)N[C@@]1(C)c1ccc(C2=CCC(C)(C)CC2)c(Cl)c1', 'pEC50', '=', 7.66),
  ('CC(C)C1=CN([C@H]2C[C@H](C(=O)O)C2)C(=O)N[C@]1(C)c1cc(Cl)c(CCC(C)(C)C)cc1F', 'pEC50', '<', 5.49),
  ('CC(C)C1=CN(CCC(C)C(=O)O)C(=O)NC1(C)c1ccc(OCC(C)(C)C)c(Cl)c1 (single isomer, unassigned) [Example 20]', 'pEC50', '=', 5.60),
  ('CC(C)C1=CN(CCC(=O)O)C(=O)N[C@]1(C)c1ccc(C2CCCCC2)c(Cl)c1', 'pEC50', '<', 5.10),
  ('CC(C)CCOc1ccc([C@]2(C)NC(=O)N(CCC(=O)O)C=C2C(C)C)cc1Cl', 'pEC50', '=', 7.92),
  ('CC(C)C1=CN(CCC(=O)O)C(=O)N[C@]1(C)c1ccc(CCC2CCCC2)c(Cl)c1', 'pEC50', '<', 5.10),
  ('CC(C)(C)C1=CN(CCCC(=O)O)C(=O)NC1c1ccc(OCCC2CCCCC2)c(Cl)c1 (racemic)', 'pEC50', '=', 7.21),
  ('CC(C)C1=CN(CC(=O)O)C(=O)N[C@]1(C)c1ccc(CCC(C)(C)C)c(Cl)c1', 'pEC50', '=', 5.59),
  ('CC(C)C1=CN([C@H]2CC[C@@H](C(=O)O)CC2)C(=O)N[C@]1(C)c1ccc(CCC(C)(C)C)c(Cl)c1', 'pEC50', '=', 5.57),
  ('CC(C)C1=CN(CCCC(=O)O)C(=O)NC1(C)c1ccc(OCC(C)(C)C)c(Cl)c1 (racemic) [Example 9]', 'pEC50', '=', 7.49),
  ('CC(C)(C)COc1ccc(C2NC(=O)NC=C2C(C)(C)C(=O)O)cc1Cl (racemic)', 'pEC50', '=', 4.88),
  ('CC(C)(C)CCc1ccc([C@]2(C)NC(=O)N(CCCC(=O)O)C=C2C2CC2)cc1Cl', 'pEC50', '=', 7.66),
  ('CC(C)C1=CN(CCC(=O)O)C(=O)N[C@@]1(C)c1ccc(C2CC2C(C)(C)C)c(Cl)c1 (single isomer, unassigned) [Example 170]', 'pEC50', '=', 7.40),
  ('CC(C)C1=CN([C@H]2C[C@@H](C(=O)O)C2)C(=O)N[C@]1(C)c1ccc(CCC(C)(C)C)c(Cl)c1', 'pEC50', '=', 5.12),
  ('CC(C)C1=CN(C[C@H]2C[C@H](C(=O)O)C2)C(=O)NC1(C)c1ccc(CCC(C)(C)C)c(Cl)c1 (mixture of isomers)', 'pEC50', '=', 7.77),
  ('CC(C)OCc1ccc([C@]2(C)NC(=O)N(CCC(=O)O)C=C2C(C)C)cc1Cl', 'pEC50', '=', 6.59),
  ('CC(C)C1=CN(CCC(C)C(=O)O)C(=O)NC1(C)c1ccc(CCC(C)(C)C)c(Cl)c1 (single isomer, unassigned) [Example 24]', 'pEC50', '=', 5.53),
  ('CC(C)C1=CN(CCCC(=O)O)C(=O)NC1(C)c1ccc(OCC(C)(C)C)c(Cl)c1 (single isomer, unassigned) [Example 12]', 'pEC50', '=', 7.77),
  ('CC(C)C1=CN([C@H]2C[C@H](C(=O)O)C2)C(=O)N[C@@]1(C)c1cc(Cl)c(CCC(C)(C)C)cc1F', 'pEC50', '=', 7.51),
  ('COC(=O)[C@H]1C[C@H](N2C=C(C(C)(C)CCC(=O)O)C(C)(c3ccc(CCC(C)(C)C)c(Cl)c3)NC2=O)C1 (single isomer, unassigned)', 'pEC50', '=', 7.49),
  ('CC(C)C1=CN(CCCC(C)(C)C(=O)O)C(=O)N[C@@]1(C)c1ccc(CCC(C)(C)C)c(Cl)c1', 'pEC50', '=', 6.50),
  ('CC(C)(C)CCc1ccc(C2NC(=O)N([C@H]3C[C@H](C(=O)O)C3)C=C2C(C)(C)C)cc1Cl (single isomer, unassigned) [Example 101]', 'pEC50', '=', 7.68),
  ('CC(C)C1=CN(C2CCC(C(=O)O)C2)C(=O)N[C@]1(C)c1ccc(CCC(C)(C)C)c(Cl)c1 (single isomer, unassigned)', 'pEC50', '<', 5.10),
  ('CC(C)C1=CN([C@H]2C[C@H](C(=O)O)C2)C(=O)N[C@@]1(C)c1ccc(CCC(C)(C)C)c(Cl)c1', 'pEC50', '=', 7.55),
  ('CC(C)(C)COc1ccc(C2NC(=O)N(CCCC(=O)O)C=C2C(C)(C)C)cc1Cl (racemic) [Example 1]', 'pEC50', '=', 7.22);

* * *

- target under test: human RORγ (Homo sapiens, UniProt P51449)
- Construct: human RORγ, from Ser253 to Lys518; expressed in transfected cells; host or cells: CHO cells (Chinese hamster ovary), transient co-transfection with pG5-Luc
- Sequence (P51449 253-518): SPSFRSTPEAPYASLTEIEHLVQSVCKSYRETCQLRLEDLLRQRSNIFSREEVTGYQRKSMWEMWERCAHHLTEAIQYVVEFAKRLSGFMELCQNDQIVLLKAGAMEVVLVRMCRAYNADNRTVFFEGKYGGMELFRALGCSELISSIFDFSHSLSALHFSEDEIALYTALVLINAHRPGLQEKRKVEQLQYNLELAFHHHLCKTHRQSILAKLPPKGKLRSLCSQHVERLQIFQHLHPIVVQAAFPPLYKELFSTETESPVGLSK
- assay remarks: In vitro assay of inhibitory effect against RORγ transcriptional activity (GAL4-hRORγ LBD luciferase reporter gene assay in CHO cells)
- Type: cell-based
- particulars: GAL4-hRORγ LBD / pG5-Luc in CHO cells, 2 days incubation
Below is a list of entries, each paired with its recorded EC50 value.
reported property: EC50 (nM)

INSERT INTO results (molecule, target_under_test, result_units, reported_relation, value) VALUES
  ('CC(C)C1=CN(CCC(=O)O)C(=O)N[C@]1(C)c1ccc(CCC2CC(C)(C)C2)c(Cl)c1', 'human RORγ (Homo sapiens, UniProt P51449)', 'nM', '>', 8000),
  ('COCCN1C=C([C@H]2C[C@@H](C(=O)O)C2)C(C)(c2ccc(CCC(C)(C)C)c(Cl)c2)NC1=O (single isomer, unassigned)', 'human RORγ (Homo sapiens, UniProt P51449)', 'nM', '=', 12),
  ('CC(C)(C)CCc1ccc(C2NC(=O)N(CCCC(=O)O)C=C2C(C)(C)C)cc1Cl (single isomer, unassigned) [Example 10]', 'human RORγ (Homo sapiens, UniProt P51449)', 'nM', '=', 9),
  ('CC(C)(C)CCc1ccc([C@]2(C)NC(=O)N([C@H]3C[C@H](C(=O)O)C3)C=C2C2CCOCC2)cc1Cl', 'human RORγ (Homo sapiens, UniProt P51449)', 'nM', '=', 20),
  ('CC(C)OCc1ccc([C@]2(C)NC(=O)N(CCC(=O)O)C=C2C(C)C)cc1Cl', 'human RORγ (Homo sapiens, UniProt P51449)', 'nM', '=', 497),
  ('CC(C)N1C=C(C(C)(C)CCC(=O)O)C(C)(c2ccc(CCC(C)(C)C)c(Cl)c2)NC1=O (single isomer, unassigned)', 'human RORγ (Homo sapiens, UniProt P51449)', 'nM', '=', 13),
  ('COC(=O)[C@H]1C[C@H](N2C=C(C(C)(C)CCC(=O)O)C(C)(c3ccc(CCC(C)(C)C)c(Cl)c3)NC2=O)C1 (single isomer, unassigned)', 'human RORγ (Homo sapiens, UniProt P51449)', 'nM', '=', 18),
  ('CC(C)C1=CN(CCC(C)C(=O)O)C(=O)NC1(C)c1ccc(OCC(C)(C)C)c(Cl)c1 (single isomer, unassigned) [Example 20]', 'human RORγ (Homo sapiens, UniProt P51449)', 'nM', '=', 2930),
  ('CC(C)C1=CN(CCC(=O)O)C(=O)N[C@@]1(C)c1ccc(C2CC2C(C)C)c(Cl)c1 (single isomer, unassigned)', 'human RORγ (Homo sapiens, UniProt P51449)', 'nM', '=', 14),
  ('CC(C)C1=CN(CCC(=O)O)C(=O)N[C@@]1(C)c1ccc(COC(C)(C)C)c(Cl)c1', 'human RORγ (Homo sapiens, UniProt P51449)', 'nM', '=', 59),
  ('CC(C)C1=CN(c2ccc(C(=O)O)cc2)C(=O)N[C@@]1(C)c1ccc(CCC(C)(C)C)c(Cl)c1', 'human RORγ (Homo sapiens, UniProt P51449)', 'nM', '=', 21),
  ('CCCCc1ccc(C2(C)NC(=O)N(CCCC(=O)O)C=C2C(C)C)cc1 (racemic)', 'human RORγ (Homo sapiens, UniProt P51449)', 'nM', '=', 746),
  ('CC(C)C1=CN([C@H]2CC[C@H](C(=O)O)CC2)C(=O)N[C@]1(C)c1ccc(CCC(C)(C)C)c(Cl)c1', 'human RORγ (Homo sapiens, UniProt P51449)', 'nM', '=', 6490),
  ('CC(C)C1=CN(CCC(=O)O)C(=O)N[C@@]1(C)c1ccc(C2CCC(C)(C)CC2)c(Cl)c1', 'human RORγ (Homo sapiens, UniProt P51449)', 'nM', '=', 19);
